Listed here: items and their measured MFC, C. parapsilosis DSM 5784.
test system: C. parapsilosis DSM 5784; format: cell-based; conditions: DSM 5784, 24 h
Positions of bridges follow the written chain, without caps; N, C: chain ends. Non-standard residues stand in square brackets, D forms with d. Residues, ends and D or L forms follow the SMILES beside them. Triazole bridges read from a SMILES are 1,4-linked. Lys(N3) = [N-]=[N+]=NCCCC[C@H](N)C(=O)O; Pra = C#CC[C@H](N)C(=O)O

Guide cases for MFC, C. parapsilosis DSM 5784, answers given:
1) CC[C@H](C)[C@H](NC(=O)[C@H](CCCNC(=N)N)NC(=O)[C@@H]1CCC(=O)NCCCC[C@H](NC(=O)[C@H](Cc2ccccc2)NC(=O)[C@H](Cc2c[nH]c3ccccc23)NC(=O)[C@@H]2CCCN2C(=O)[C@@H](NC(=O)[C@@H](N)Cc2ccccc2)C(C)C)C(=O)N[C@@H](CCCCN)C(=O)N[C@@H](Cc2ccccc2)C(=O)N[C@H](CC(C)C)C(=O)N1)C(=O)N[C@@H](CC(C)C)C(N)=O [compound 3] (H-FVPWFKKF[dL]ERIL-NH2; lactam 6-10; N-terminus assumed) : 50 µM
2) CC[C@H](C)[C@H](NC(=O)[C@H](CCCNC(=N)N)NC(=O)[C@@H]1CCCCNC(=O)CC[C@H](NC(=O)[C@H](Cc2ccccc2)NC(=O)[C@H](Cc2c[nH]c3ccccc23)NC(=O)[C@@H]2CCCN2C(=O)[C@@H](NC(=O)[C@@H](N)Cc2ccccc2)C(C)C)C(=O)N[C@@H](CCCCN)C(=O)N[C@@H](Cc2ccccc2)C(=O)N[C@H](CC(C)C)C(=O)N1)C(=O)N[C@@H](CC(C)C)C(N)=O [compound 15] (H-FVPWFEKF[dL]KRIL-NH2; lactam 6-10; N-terminus assumed) : 50 µM
3) CC[C@H](C)[C@H](NC(=O)[C@H](CCCNC(=N)N)NC(=O)[C@@H]1CSSC[C@H](NC(=O)[C@H](Cc2ccccc2)NC(=O)[C@H](Cc2c[nH]c3ccccc23)NC(=O)[C@@H]2CCCN2C(=O)[C@@H](NC(=O)[C@@H](N)Cc2ccccc2)C(C)C)C(=O)N[C@@H](CCCCN)C(=O)N[C@@H](Cc2ccccc2)C(=O)N[C@H](CC(C)C)C(=O)N1)C(=O)N[C@@H](CC(C)C)C(N)=O [compound 16] (H-FVPWFCKF[dL]CRIL-NH2; disulfide 6-10; N-terminus assumed) : >50 µM

Let's switch to this compound now.
Req: Could you tell me which MFC, C. parapsilosis DSM 5784 is on file for CC(C)C[C@H](NC(=O)[C@@H]1CCCCn2cc(nn2)C[C@H](NC(=O)[C@H](CCCCN)NC(=O)[C@H](CO)NC(=O)[C@H](Cc2ccccc2)NC(=O)[C@H](Cc2c[nH]c3ccccc23)NC(=O)[C@@H]2CCCN2C(=O)[C@@H](NC(=O)[C@@H](N)Cc2ccccc2)C(C)C)C(=O)N[C@H](CC(C)C)C(=O)NCC(=O)N[C@@H](CCCNC(=N)N)C(=O)N1)C(N)=O [compound 7] (H-FVPWFSK[Pra][dL]GR[Lys(N3)]L-NH2; triazole 8-12; N-terminus assumed) ?
Resp: 50 µM

====

Tested on: C. albicans cells
Assay: Zeta potential of fungal cells by dynamic light scattering
Type: cell-based
Design: unit not given here
Conditions: theoretical: charge of the peptide added to the zeta potential of the C. albicans cells
Description: The zeta potential of the fungal cells was recorded in a suspension (0.5 × 10^6 cells/mL) using the electrophoretic light scattering technique on a Zetasizer Nano ZS analyzer. Before the peptide treatment, the cells were suspended using a 0.05% trypsin solution in 0.53 mM EDTA. The concentration of the suspended cells in a buffered phosphate saline (PBS, 1.7 mM KH2PO4, 5.2 mM Na2HPO4 and 150 mM NaCl) was determined on a hemocytometer. […]
Positions of bridges follow the written chain, without caps; N, C: chain ends. Non-standard residues stand in square brackets, D forms with d. Residues, ends and D or L forms follow the SMILES beside them.
Listed here: items and their measured Calculated Zeta Potential.
// no unit, no text: just the number

Guide cases for Calculated Zeta Potential, answers given:
1) CC[C@H](C)[C@H](NC(=O)[C@H](CCCNC(=N)N)NC(=O)[C@@H]1CSSC[C@H](NC(=O)[C@H](Cc2ccccc2)NC(=O)[C@H](Cc2c[nH]c3ccccc23)NC(=O)[C@@H]2CCCN2C(=O)[C@@H](NC(=O)[C@@H](N)Cc2ccccc2)C(C)C)C(=O)N[C@@H](CCCCN)C(=O)N[C@@H](Cc2ccccc2)C(=O)N[C@H](CC(C)C)C(=O)N1)C(=O)N[C@@H](CC(C)C)C(N)=O [compound 16] (H-FVPWFCKF[dL]CRIL-NH2; disulfide 6-10; N-terminus assumed) : −3.2
2) CC[C@H](C)[C@H](NC(=O)[C@H](CCCNC(=N)N)NC(=O)[C@@H]1CCC(=O)NCCCC[C@H](NC(=O)[C@H](Cc2ccccc2)NC(=O)[C@H](Cc2c[nH]c3ccccc23)NC(=O)[C@@H]2CCCN2C(=O)[C@@H](NC(=O)[C@@H](N)Cc2ccccc2)C(C)C)C(=O)N[C@@H](CCCCN)C(=O)N[C@@H](Cc2ccccc2)C(=O)N[C@H](CC(C)C)C(=O)N1)C(=O)N[C@@H](CC(C)C)C(N)=O [compound 3] (H-FVPWFKKF[dL]ERIL-NH2; lactam 6-10; N-terminus assumed) : −3.2

Req: Could you tell me which Calculated Zeta Potential is on file for CC[C@H](C)[C@H](NC(=O)[C@H](CCCNC(=N)N)NC(=O)[C@@H]1CCCCNC(=O)CC[C@H](NC(=O)[C@H](Cc2ccccc2)NC(=O)[C@H](Cc2c[nH]c3ccccc23)NC(=O)[C@@H]2CCCN2C(=O)[C@@H](NC(=O)[C@@H](N)Cc2ccccc2)C(C)C)C(=O)N[C@@H](CCCCN)C(=O)N[C@@H](Cc2ccccc2)C(=O)N[C@H](CC(C)C)C(=O)N1)C(=O)N[C@@H](CC(C)C)C(N)=O [compound 15] (H-FVPWFEKF[dL]KRIL-NH2; lactam 6-10; N-terminus assumed) ?
Resp: −3.2

====

test system: S. typhimurium strain TA100; type: cell-based; settings: 12.5 µM, TA100 without S9, 37 °C, 5 days, duplicate; MR ≥2 = mutagenic
Positions of bridges follow the written chain, without caps; N, C: chain ends. Non-standard residues stand in square brackets, D forms with d. Residues, ends and D or L forms follow the SMILES beside them.
value.type: mutagenicity ratio (MR)

Req: Could you tell me which mutagenicity ratio (MR) is on file for CC[C@H](C)[C@H](NC(=O)[C@H](CCCNC(=N)N)NC(=O)[C@@H]1CSSC[C@H](NC(=O)[C@H](Cc2ccccc2)NC(=O)[C@H](Cc2c[nH]c3ccccc23)NC(=O)[C@@H]2CCCN2C(=O)[C@@H](NC(=O)[C@@H](N)Cc2ccccc2)C(C)C)C(=O)N[C@@H](CCCCN)C(=O)N[C@@H](Cc2ccccc2)C(=O)N[C@H](CC(C)C)C(=O)N1)C(=O)N[C@@H](CC(C)C)C(N)=O [compound 16] (H-FVPWFCKF[dL]CRIL-NH2; disulfide 6-10; N-terminus assumed) ?
Resp: < 2

====

Tested on: C. albicans cells
Assay: Zeta potential of fungal cells by dynamic light scattering
Assay type: cell-based
Settings: C. albicans cells after peptide 25 μM, PBS 0.001×, electrophoretic light scattering
Method: The zeta potential of the fungal cells was recorded in a suspension (0.5 × 10^6 cells/mL) using the electrophoretic light scattering technique on a Zetasizer Nano ZS analyzer. Before the peptide treatment, the cells were suspended using a 0.05% trypsin solution in 0.53 mM EDTA. The concentration of the suspended cells in a buffered phosphate saline (PBS, 1.7 mM KH2PO4, 5.2 mM Na2HPO4 and 150 mM NaCl) was determined on a hemocytometer. […]
Positions of bridges follow the written chain, without caps; N, C: chain ends. Non-standard residues stand in square brackets, D forms with d. Residues, ends and D or L forms follow the SMILES beside them. Triazole bridges read from a SMILES are 1,4-linked. Lys(N3) = [N-]=[N+]=NCCCC[C@H](N)C(=O)O; Pra = C#CC[C@H](N)C(=O)O
value.type: Experimental Zeta Potential (ς)

Guide cases for Experimental Zeta Potential (ς), answers given:
1) CC[C@H](C)[C@H](NC(=O)[C@H](CCCNC(=N)N)NC(=O)[C@@H]1CCCCNC(=O)CC[C@H](NC(=O)[C@H](Cc2ccccc2)NC(=O)[C@H](Cc2c[nH]c3ccccc23)NC(=O)[C@@H]2CCCN2C(=O)[C@@H](NC(=O)[C@@H](N)Cc2ccccc2)C(C)C)C(=O)N[C@@H](CCCCN)C(=O)N[C@@H](Cc2ccccc2)C(=O)N[C@H](CC(C)C)C(=O)N1)C(=O)N[C@@H](CC(C)C)C(N)=O [compound 15] (H-FVPWFEKF[dL]KRIL-NH2; lactam 6-10; N-terminus assumed) : 13.5 ± 3.4 mV
2) CC(C)C[C@H](NC(=O)[C@@H]1CCCCn2cc(nn2)C[C@H](NC(=O)[C@H](CCCCN)NC(=O)[C@H](CO)NC(=O)[C@H](Cc2ccccc2)NC(=O)[C@H](Cc2c[nH]c3ccccc23)NC(=O)[C@@H]2CCCN2C(=O)[C@@H](NC(=O)[C@@H](N)Cc2ccccc2)C(C)C)C(=O)N[C@H](CC(C)C)C(=O)NCC(=O)N[C@@H](CCCNC(=N)N)C(=O)N1)C(N)=O [compound 7] (H-FVPWFSK[Pra][dL]GR[Lys(N3)]L-NH2; triazole 8-12; N-terminus assumed) : −4.5 ± 1.6 mV

Req: Could you tell me which Experimental Zeta Potential (ς) is on file for CC[C@H](C)[C@H](NC(=O)[C@H](CCCNC(=N)N)NC(=O)[C@@H]1CCC(=O)NCCCC[C@H](NC(=O)[C@H](Cc2ccccc2)NC(=O)[C@H](Cc2c[nH]c3ccccc23)NC(=O)[C@@H]2CCCN2C(=O)[C@@H](NC(=O)[C@@H](N)Cc2ccccc2)C(C)C)C(=O)N[C@@H](CCCCN)C(=O)N[C@@H](Cc2ccccc2)C(=O)N[C@H](CC(C)C)C(=O)N1)C(=O)N[C@@H](CC(C)C)C(N)=O [compound 3] (H-FVPWFKKF[dL]ERIL-NH2; lactam 6-10; N-terminus assumed) ?
Resp: 1.6 ± 0.3 mV

Req: CC[C@H](C)[C@H](NC(=O)[C@H](CCCNC(=N)N)NC(=O)[C@@H]1CSSC[C@H](NC(=O)[C@H](Cc2ccccc2)NC(=O)[C@H](Cc2c[nH]c3ccccc23)NC(=O)[C@@H]2CCCN2C(=O)[C@@H](NC(=O)[C@@H](N)Cc2ccccc2)C(C)C)C(=O)N[C@@H](CCCCN)C(=O)N[C@@H](Cc2ccccc2)C(=O)N[C@H](CC(C)C)C(=O)N1)C(=O)N[C@@H](CC(C)C)C(N)=O [compound 16] (H-FVPWFCKF[dL]CRIL-NH2; disulfide 6-10; N-terminus assumed) , same question.
Resp: −6.5 ± 0.2 mV
